Data credit: the supplement of paper PMC9170038

- Test system: MS2 coat protein
- assay protocol: apparent KD of MS2 coat protein, switch ON state; designed switch direction (-1 OFF switch, 1 ON switch): -1; higher = weaker reporter binding
- test conditions: FMN input: 0 or 200 uM; Eterna round: R93 (includes R88 designs)
Provide the reported apparent KD of MS2 coat protein of each item.
Answer format: numeric, nM implied, no suffix.

What apparent KD of MS2 coat protein value was documented for this sequence, AAGAAACGAGGAUAUACAAAAUAAAAGAAAAGAAAGAAAGAACAUGAGGAUCACCCAUGUAGAAGGCGUAAGAA [Wahibre Ibiau] ?
44.6

Now the same for AAUAAGUGAGGAUAUGUGAAUAGUAGAUAAGAUUCCCUAAAACAGAAGGCACAUGAGGAUCACCCAUGUAAAUA [JR_Exc004_Sub008]
26.2

Now the same for GCAGGCCAAGGAUAUACAUGAGGAUCACCCAUGUGAGAGAAAAAAGUGAGAAAGAAAAGUAGAAGGUGGUUUGG [salish99-ex3-113]
71.7

Now the same for GGAAAACAUGAGGAUCACCCAUGUGAGGAUAUCGAUGUCCAAACCAAAGUGCGGGACUCGAGAAGGCACUUGGA [salish99-ex1-37]
45.9

Now the same for GAUCAGCUAGGAUAUACAUUAAUCCGAAAUGAGAAGAAAGAACAUGAGGAUCACCCAUGUAGAAGGAGCCAGUA [Usinisat]
33.7

Now the same for GCUGGCGUAGGAUAUACAUGAGGAUCACCCAUGUGAGAGAAAAAAGUGAGAAAGAAAAGUAGAAGGACGUUAGG [salish99-ex3-116]
40.4

Now the same for AAGAAGCGAGGAUAUACAUGAGGAUCACCCAUGUAAAAGAAAGAAGGGAAAGAGAAAAGUAGAAGGCGCAAGAA [Hedjkheperre-setpenre Takelot II]
70.7

Now the same for AAGGUAUAAGGAUAUGCAUAGAUACAGACACAUGUUCAAGUACAUGAGGAUCACCCAUGUAGAAGGUAUAUAUA [AJ 12]
32.2

Now the same for AUCAUGUAAGGAUAUUUAAGAAAAGAAAAGAAAGAAAAGAAAAAGAAGGUACAUGAGGAUCACCCAUGUAAGAA [EteRNA is fun!]
27.1

Now the same for AAAGGUGCAGGAUAUGCGUGGAAAAAGUGUAUUCAAAAAAAACAUGAGGAUCACCCAUGUAGAAGGGUACCAAA [MS2 Riboswitches On Chip Exclusion 2 wbt2]
55.7

Now the same for AAAUAGUUAGGAUAUACAUGAGGAUCACCCAUGUGGACUUAUGGAGAAUAAUUUAGUGGUAGAAGGGACUAAAA [EX2 Malc#27]
46.4

Now the same for GUAGUGUGAGGAUAUGGAAAGAAGAAGAAAAGGUAGAAAAACUAGAAGGCACAUGAGGAUCACCCAUGUAAGAA [JR_Exc004_Sub1710]
29.1

Now the same for AAAAAUGGAGGAUAUACAUGAGGAUCACCCAUGUGUAACUAUACUAAGCGCUCCUCACGUAGAAGGCCAAAAAA [Gilly Gone Silly 14 - Jieux - Exclusion 3]
74.1

Now the same for AAAAAACAUGAGGAUCACCCAUGUUAGGAUAUGCUAUGGAAAAAUAAAAUAAAACAUAGCAGAAGGGACAAAAA [Mat - Exclusion 1 - Eli mod - D28]
15

Now the same for GGUUGGCGAGGAUAUACAUGAGGAUCACCCAUGUGAGAGAAAAAAGUGAGAAAGAAAAGUAGAAGGCGCUGACC [salish99-ex3-04]
45.7

Now the same for AAAAAUCGAGGAUAUACAUGAGGAUCACCCAUGUUAGAAAAUGAUUACACAAAAGAAAGUAGAAGGCGAUAAAA [Ex 3 May 20]
27.9

Now the same for GUCAGCUGAGGAUAUACAGGUGAGGCCGCAUAACAAAAUAUACAUGAGGAUCACCCAUGUAGAAGGCGGAAGAC [Soreramare]
41.1

Now the same for AUGUACCUAGGAUAUACAUGAGGAUCACCCAUGUACUGGGAGCAAUCAAGUUAAUAUUGUAGAAGGAGGUGAAA [JR_Exc003_Sub315]
20.1
